- assay comment: Solubility of Ex 1 in aqueous solution in the absence of an excipient
- condition set: aqueous solution without excipient, water
Counter-ions that a name gives are not always drawn.
measurement name: solubility

[[record]]
compound = "CCOC(=O)[C@H](Cc1ccc(F)cc1)NC(=O)[C@@H](N)Cc1ccc(N(CCCl)CCCl)cc1 [Ex 1, melphalan flufenamide hydrochloride]"
assay_value = "< 400 µg/mL"

